Source: ChEMBL document CHEMBL4325887

Would you kindly list Papp at 16 h for each of these molecules?
- Assay Details: Apparent permeability of compound in pH 7.4 PBS after 16 hrs by PAMPA assay
- Type: ADME
Where a SMILES comes first, the peptide text is derived from it. [ ]: non-standard residue; d: D form. NMeY = CN[C@@H](Cc1ccc(O)cc1)C(=O)O; dNMeF = CN[C@H](Cc1ccccc1)C(=O)O; NMeA = CN[C@@H](C)C(=O)O; Sar = CNCC(=O)O
Answers are plain numbers, in nm/s.

Problem: Look at this molecule and give its reported Papp at 16 h. CC(C)C[C@@H]1NC(=O)[C@H](C)NC(=O)[C@H](Cc2ccc(O)cc2)N(C)C(=O)[C@H](Cc2ccccc2)NC(=O)CN(C)C(=O)[C@@H]2CCCN2C(=O)[C@@H](Cc2ccccc2)N(C)C1=O (cyclo(AL[dNMeF]P[Sar]F[NMeY]))
Solution: 2

Below: the item to evaluate.
Problem: I would be grateful if you could share the reported Papp at 16 h for CC[C@H](C)[C@@H]1NC(=O)[C@H](C)N(C)C(=O)[C@H](Cc2ccccc2)NC(=O)CN(C)C(=O)[C@@H]2CCCN2C(=O)[C@@H](Cc2ccccc2)N(C)C(=O)[C@H](CC(C)C)NC1=O (cyclo(F[NMeA]IL[dNMeF]P[Sar])) .
Solution: 59

---

- Assay Details: 1,9-decadiene/aqueous buffer solution partition coefficient, log D of the compound in PBS at pH 7.4 by shake flask method
- Assay type: physicochemical
Where a SMILES comes first, the peptide text is derived from it. [ ]: non-standard residue; d: D form. NMeY = CN[C@@H](Cc1ccc(O)cc1)C(=O)O; dNMeF = CN[C@H](Cc1ccccc1)C(=O)O; NMeA = CN[C@@H](C)C(=O)O; Sar = CNCC(=O)O
Quantity Kind: logD hydrocarbon water
One number for each entry.

Known results for compounds:
Problem: What logD hydrocarbon water value was documented for this compound, C/C=C/C[C@@H](C)[C@@H](OC(C)=O)[C@H]1C(=O)N[C@@H](CC)C(=O)N(C)CC(=O)N(C)[C@@H](CC(C)C)C(=O)N[C@@H](C(C)C)C(=O)N(C)[C@@H](CC(C)C)C(=O)N[C@@H](C)C(=O)N[C@H](C)C(=O)N(C)[C@@H](CC(C)C)C(=O)N(C)[C@@H](CC(C)C)C(=O)N(C)[C@@H](C(C)C)C(=O)N1C ?
Solution: 4.14

Problem: What value of logD hydrocarbon water has been reported for the following compound? CC[C@@H]1NC(=O)[C@H](CC(C)C)N(C)C(=O)[C@H](C(C)C)N(C)C(=O)[C@H](CC(C)C)N(C)C(=O)[C@H](CC(C)C)N(C)C(=O)[C@@H](C)NC(=O)[C@H](C)NC(=O)[C@H](CC(C)C)N(C)C(=O)[C@H](C(C)C)NC(=O)[C@H](CC(C)C)N(C)C(=O)CN(C)C1=O
Solution: 3.94

Problem: Can you look up the measured logD hydrocarbon water of CC[C@H](C)[C@@H]1NC(=O)[C@H](Cc2ccc(O)cc2)N(C)C(=O)[C@H](Cc2ccccc2)NC(=O)CN(C)C(=O)[C@H](C)N(C)C(=O)[C@@H](Cc2ccccc2)N(C)C(=O)[C@H](CC(C)C)NC1=O (cyclo(F[NMeY]IL[dNMeF][NMeA][Sar])) for me?
Solution: 0.92

We next turn to a different compound, shown below.
Problem: # lookup: logD hydrocarbon water of CC[C@H](C)[C@@H]1NC(=O)[C@H](Cc2ccc(O)cc2)N(C)C(=O)[C@H](Cc2ccccc2)NC(=O)CN(C)C(=O)[C@@H]2CCCN2C(=O)[C@@H](Cc2ccccc2)N(C)C(=O)[C@H](CC(C)C)NC1=O [CORDYHEPTAPEPTIDE A] (cyclo(F[NMeY]IL[dNMeF]P[Sar]))
Solution: -0.13

---

Kindly supply the reported solubility thermodynamic values for the records listed here.
- Assay Details: Thermodynamic aqueous solubility of compound in pH 7.4 PBS by UPLC-MS analysis
- Assay type: physicochemical
- Experimental Context: PBS pH 7.4, pH 7.4; read-out: Therm_solubility
Where a SMILES comes first, the peptide text is derived from it. [ ]: non-standard residue; d: D form. NMeY = CN[C@@H](Cc1ccc(O)cc1)C(=O)O; NMeF = CN[C@@H](Cc1ccccc1)C(=O)O; dNMeF = CN[C@H](Cc1ccccc1)C(=O)O; Sar = CNCC(=O)O
Answers are plain numbers, in µM.

// worked examples, solubility thermodynamic included
Problem: Field request: solubility thermodynamic | item: CC[C@H](C)[C@@H]1NC(=O)[C@H](Cc2ccccc2)N(C)C(=O)[C@H](Cc2ccccc2)NC(=O)CN(C)C(=O)[C@@H]2CCCN2C(=O)[C@@H](Cc2ccccc2)N(C)C(=O)[C@H](CC(C)C)NC1=O (cyclo(F[NMeF]IL[dNMeF]P[Sar]))
Solution: 2.3

Problem: Could you tell me which solubility thermodynamic is on file for CC(C)C[C@@H]1NC(=O)[C@H](C)NC(=O)[C@H](Cc2ccc(O)cc2)N(C)C(=O)[C@H](Cc2ccccc2)NC(=O)CN(C)C(=O)[C@@H]2CCCN2C(=O)[C@@H](Cc2ccccc2)N(C)C1=O (cyclo(AL[dNMeF]P[Sar]F[NMeY])) ?
Solution: 10

Here is the next item to consider.
Problem: What solubility thermodynamic value was documented for this compound, C/C=C/C[C@@H](C)[C@@H](O)[C@H]1C(=O)N[C@@H]([C@@H](C)O)C(=O)N(C)CC(=O)N(C)[C@@H](CC(C)C)C(=O)N[C@@H](C(C)C)C(=O)N(C)[C@@H](CC(C)C)C(=O)N[C@@H](C)C(=O)N[C@H](C)C(=O)N(C)[C@@H](CC(C)C)C(=O)N(C)[C@@H](CC(C)C)C(=O)N(C)[C@@H](C(C)C)C(=O)N1C ?
Solution: 33
